- assayedSystem: MTSP-6
- assayName: cell-based or functional assay
parameter: activity against protease in selectivity screen (enzyme assay)

# binder, result
measured = [
    ("D2 IgG1 antibody (Fab D2 reformatted) (antibody, V domains shown) VH: EVQLLESGGGLVQPGGSLRLSCAASGFTFSRYRMYWVRQAPGKGLEWVSSISPSGGDTRYADSVKGRFTISRDNSKNTLYLQMNSLRAEDTAVYYCARGGPRGNKYYFDYWGQGTLVTVSS VL: DIQMTQSPSSLSASVGDRVTITCRASQTIDNYLNWYQQKPGKAPKLVVYAASTLQTRVPSRFSGSGSGTDFTLTIDSLKPEDFATYFCQQGFSNPWTFGQGTTVAMIR", "< 5%"),
]

Qu. Which value of activity against protease in selectivity screen (enzyme assay) has been reported for C9 IgG1 antibody (Fab C9 reformatted) (antibody, V domains shown) VH: EVQLLESGGGLVQPGGSLRLSCAASGFTFSRYPMFWVRQAPGKGLEWVSYISSSGGFTGYADSVKGRFTISRDNSKNTLYLQMNSLRAEDTAVYYCARGGPRGNKYYFDYWGQGTLVTVSS VL: QSVLTQPASVSGSPGQSITISCTGTSSDVGHYNYVSWYQQHPGKAPKVMIYDVSSRPSGVSDRFSGSKSGNTASLAISGLQAEDEADYYCSSYTSGDTLYVFGTGTKVTVLG in the records?
Ans. < 5%
